- MEASUREMENT TARGET: Adenosine receptor A1 (Homo sapiens) (UniProt P30542)
- TEST DETAILS: Allosteric enhancing activity at human adenosine A1 receptor expressed in CHO cells assessed as increase in CCPA-induced [3H]DPCPX displacement at 10 uM after 90 mins relative to control
- Format: cell-based
Binary label based on Ratio Ki with cut-off 6: below gives Y, not below gives N.

**Q:** Find out if reported Ratio Ki for Nc1sc(-c2ccc(Cl)cc2)c(CN2CCN(c3ccc(C(F)(F)F)cc3)CC2)c1C(=O)c1ccc(Cl)cc1 is less than 6
**A:** N

**Q:** Could you please tell me whether Ratio Ki recorded for Nc1sc(-c2ccc(F)cc2)c(CN2CCN(c3ccccc3)CC2)c1C(=O)c1ccc(Cl)cc1 is less than 6?
**A:** N

**Q:** Threshold test, Ratio Ki < 6: CCc1sc(N)c(C(=O)c2ccc(Cl)cc2)c1CN1CCN(c2ccccc2)CC1
**A:** Y

**Q:** Determine if Nc1sc(-c2ccc(Cl)cc2)c(CN2CCN(c3ccccc3)CC2)c1C(=O)c1ccc(Cl)cc1 shows Ratio Ki strictly lower than 6.
**A:** N

**Q:** Say whether its Ratio Ki is strictly beneath 6. Entry: Nc1sc(-c2ccccc2)c(CN2CCN(c3ccccc3)CC2)c1C(=O)c1ccc(Cl)cc1
**A:** N

**Q:** Item Nc1scc(CN2CCN(c3ccc(Cl)cc3)CC2)c1C(=O)c1ccc(Cl)cc1 : Ratio Ki beneath 6, strictly?
**A:** Y

**Q:** Check if Ratio Ki falls below 6 for Nc1sc(-c2ccccc2)c(CN2CCN(c3ccc(Cl)c(C(F)(F)F)c3)CC2)c1C(=O)c1ccc(Cl)cc1 .
**A:** N

**Q:** Check if Ratio Ki falls below 6 for Nc1sc(Br)c(CN2CCN(c3ccc(F)cc3)CC2)c1C(=O)c1ccc(Cl)cc1 .
**A:** Y

**Q:** # strict comparison: is reported Ratio Ki < 6? input = Nc1scc(CN2CCN(c3ccc(C(F)(F)F)cc3)CC2)c1C(=O)c1ccc(Cl)cc1
**A:** N

**Q:** Would you kindly verify if Ratio Ki of Nc1sc(-c2ccccc2)c(CN2CCN(c3ccc(OC(F)(F)F)cc3)CC2)c1C(=O)c1ccc(Cl)cc1 is strictly less than 6?
**A:** N

**Q:** Dear reviewer, please state whether Nc1sc(-c2ccccc2)c(CN2CCN(c3ccc(F)cc3)CC2)c1C(=O)c1ccc(Cl)cc1 has Ratio Ki strictly beneath 6.
**A:** N

**Q:** Hello, is Ratio Ki of the following molecule strictly smaller than 6? Cc1sc(N)c(C(=O)c2cccc(C(F)(F)F)c2)c1C
**A:** Y

**Q:** Report whether reported Ratio Ki is lower than 6 (strictly) for CCc1sc(N)c(C(=O)c2ccc(Cl)cc2)c1CN1CCN(c2ccc(F)cc2)CC1
**A:** Y

**Q:** Please indicate whether the reported Ratio Ki of Nc1scc(CN2CCN(c3ccc(OC(F)(F)F)cc3)CC2)c1C(=O)c1ccc(Cl)cc1 is strictly below 6.
**A:** Y

**Q:** I wonder whether Nc1sc(-c2ccc(Cl)cc2)c(CN2CCN(c3ccccc3C(F)(F)F)CC2)c1C(=O)c1ccc(Cl)cc1 has Ratio Ki below 6. Can you tell?
**A:** N

**Q:** Please check: Ratio Ki for Cc1sc(N)c(C(=O)c2ccc(Cl)cc2)c1CN1CCN(c2ccc(C#N)cc2)CC1 , strictly under 6 or not?
**A:** Y

**Q:** Report whether reported Ratio Ki is lower than 6 (strictly) for Nc1sc(-c2ccc(Cl)cc2)c(CN2CCN(c3ccc(Cl)cc3)CC2)c1C(=O)c1ccc(Cl)cc1
**A:** N

---

- MEASUREMENT TARGET: Adenosine receptor A1 (Homo sapiens)
- Sequence (whole entry): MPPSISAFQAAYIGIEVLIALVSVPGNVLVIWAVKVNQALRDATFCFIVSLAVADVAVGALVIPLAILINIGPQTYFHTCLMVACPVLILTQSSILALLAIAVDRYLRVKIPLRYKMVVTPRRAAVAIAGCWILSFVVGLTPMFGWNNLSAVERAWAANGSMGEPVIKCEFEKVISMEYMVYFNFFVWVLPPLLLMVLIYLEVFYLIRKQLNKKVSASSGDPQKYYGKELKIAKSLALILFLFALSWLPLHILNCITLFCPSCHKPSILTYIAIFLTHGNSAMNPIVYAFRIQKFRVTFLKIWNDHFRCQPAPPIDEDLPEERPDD
- TEST DETAILS: Allosteric enhancing activity at human adenosine A1 receptor expressed in CHO cells assessed as increase in [3H]-2-chloro-N6-cyclopentyladenosine Bmax at 10 uM after 90 mins relative to control
- Assay type: cell-based
Assignment: determine reported fold change (FC) for the given compounds.

Known value: Adenosine receptor A1 (Homo sapiens) fold change (FC) of the compound Nc1sc(-c2ccc(Cl)cc2)c(CN2CCN(c3ccccc3C(F)(F)F)CC2)c1C(=O)c1ccc(Cl)cc1 equals 8.1

Nc1sc(-c2ccccc2)c(CN2CCN(c3ccc(Cl)c(Cl)c3)CC2)c1C(=O)c1ccc(Cl)cc1 on Adenosine receptor A1 (Homo sapiens) gives fold change (FC) = 6.8

Value sought: fold change (FC), system Adenosine receptor A1 (Homo sapiens), item Cc1sc(N)c(C(=O)c2ccc(Cl)cc2)c1CN1CCN(c2cccc(Cl)c2)CC1 . Result: 6.5

The value of fold change (FC) recorded for Nc1sc(-c2ccc(Cl)cc2)c(CN2CCN(c3ccc(Cl)c(Cl)c3)CC2)c1C(=O)c1ccc(Cl)cc1 when tested on Adenosine receptor A1 (Homo sapiens) reads 8.3

---

- MEASUREMENT TARGET: Adenosine receptor A1 (Homo sapiens) (UniProt P30542)
- TEST DETAILS: Allosteric enhancing activity at human adenosine A1 receptor expressed in CHO cells assessed as increase in [3H]-2-chloro-N6-cyclopentyladenosine Bmax at 10 uM after 90 mins relative to control
- Assay type: cell-based
Please go through the items and note down their fold change (FC).
Please reply with the value in numeric form only.

fold change (FC) reading for Nc1sc(Br)c(CN2CCN(c3ccccc3)CC2)c1C(=O)c1ccc(Cl)cc1 : 4.7

Looking up Cc1sc(N)c(C(=O)c2ccc(Cl)cc2)c1CN1CCN(c2ccc(Cl)cc2)CC1 , I see its fold change (FC) listed as 4.7

fold change (FC) for Cc1ccc(N2CCN(Cc3c(C)sc(N)c3C(=O)c3ccc(Cl)cc3)CC2)cc1 is 6.6

The compound listed as Nc1sc(-c2ccccc2)c(CN2CCN(c3ccc(Cl)cc3)CC2)c1C(=O)c1ccc(Cl)cc1 shows fold change (FC) equal to 9.7

What the record says about CCc1sc(N)c(C(=O)c2ccc(Cl)cc2)c1CN1CCN(c2ccccc2)CC1 : fold change (FC) is 5.5

---

- MEASUREMENT TARGET: Adenosine receptor A1 (Homo sapiens) (UniProt P30542)
- Sequence (whole entry): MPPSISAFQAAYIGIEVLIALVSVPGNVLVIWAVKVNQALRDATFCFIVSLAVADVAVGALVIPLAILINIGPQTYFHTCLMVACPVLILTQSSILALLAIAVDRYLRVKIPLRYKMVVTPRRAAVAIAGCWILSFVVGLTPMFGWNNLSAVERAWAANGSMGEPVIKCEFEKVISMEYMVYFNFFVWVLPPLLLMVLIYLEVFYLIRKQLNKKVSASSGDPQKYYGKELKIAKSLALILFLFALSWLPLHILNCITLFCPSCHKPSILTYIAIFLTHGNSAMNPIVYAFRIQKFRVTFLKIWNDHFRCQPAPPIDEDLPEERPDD
- TEST DETAILS: Allosteric enhancing activity at human adenosine A1 receptor expressed in CHO cells assessed as increase in CCPA-induced [3H]DPCPX displacement at 10 uM after 90 mins relative to control
- Type: cell-based
Use Ratio Ki to assign classes; range list: class A: < 3; class B: ≥ 3 and < 8; class C: ≥ 8

**Q:** Which class does Nc1sc(-c2ccc(F)cc2)c(CN2CCN(c3ccc(F)cc3)CC2)c1C(=O)c1ccc(Cl)cc1 fall in?
**A:** class C

**Q:** Category lookup for the compound Cc1sc(N)c(C(=O)c2ccc(Cl)cc2)c1CN1CCN(c2ccc([N+](=O)[O-])cc2)CC1
**A:** class A

**Q:** Class? Entry: Nc1sc(-c2ccccc2)c(CN2CCN(c3ccccc3C(F)(F)F)CC2)c1C(=O)c1ccc(Cl)cc1
**A:** class B

**Q:** Pick a category. Item: Cc1ccc(N2CCN(Cc3c(C)sc(N)c3C(=O)c3ccc(Cl)cc3)CC2)cc1
**A:** class B

**Q:** Lab note: sort Nc1sc(-c2ccc(Cl)cc2)c(CN2CCN(c3ccc(F)cc3)CC2)c1C(=O)c1ccc(Cl)cc1 into the matching Ratio Ki band.
**A:** class C

**Q:** Which of the defined bands does the recorded Ratio Ki of Cc1sc(N)c(C(=O)c2ccc(Cl)cc2)c1CN1CCN(c2ccc(Cl)cc2)CC1 sit within?
**A:** class B

**Q:** GET /class?item= Cc1sc(N)c(C(=O)c2ccc(Cl)cc2)c1CN1CCN(c2ccc(Cl)c(C(F)(F)F)c2)CC1
**A:** class B

**Q:** Into which category would you place COc1ccc(N2CCN(Cc3c(C)sc(N)c3C(=O)c3ccc(Cl)cc3)CC2)cc1 ?
**A:** class A
